The measurements presented in this section are drawn from patent US20240067631A1.

Target: endogenous NAMPT (Homo sapiens (Human), UniProt P43490)
Sequence (P43490 whole entry): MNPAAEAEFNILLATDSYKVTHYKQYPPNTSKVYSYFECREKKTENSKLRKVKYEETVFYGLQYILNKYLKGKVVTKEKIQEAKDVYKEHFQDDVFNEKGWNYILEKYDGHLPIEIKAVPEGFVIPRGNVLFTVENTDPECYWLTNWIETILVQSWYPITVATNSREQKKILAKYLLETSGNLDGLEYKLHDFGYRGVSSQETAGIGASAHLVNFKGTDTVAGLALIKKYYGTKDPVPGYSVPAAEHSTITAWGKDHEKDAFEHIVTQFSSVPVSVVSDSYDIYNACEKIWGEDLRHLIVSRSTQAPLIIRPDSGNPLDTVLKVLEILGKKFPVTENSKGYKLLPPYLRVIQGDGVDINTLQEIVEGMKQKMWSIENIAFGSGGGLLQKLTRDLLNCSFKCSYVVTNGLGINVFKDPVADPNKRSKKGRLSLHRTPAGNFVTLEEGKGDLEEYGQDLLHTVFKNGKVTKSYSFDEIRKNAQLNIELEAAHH
Assay: Cellular NAD+ modulation assay in SH-SY5Y cells with doxorubicin
Assay type: cell-based
Settings: Neuroblastoma SH-SY5Y cells, 40 hours, cellular NAD levels
Listed next: entries and their corresponding SY5Y (human) NAD Cell Dox AC0.3.
Please respond with the number in µM and leave the unit unwritten.

[[record]]
compound = "Cc1nc(C(=O)NC(c2cccc(F)c2)c2ncco2)nc(NCCc2cn[nH]c2)c1C (centres unmarked)"
quantitative_readout = 1.57


Request: Name the recorded SY5Y (human) NAD Cell Dox AC0.3 of the item `Cc1nc(C(=O)N2CC(O)(c3ccccc3)C2)nc(NCCc2cn[nH]c2)c1C` in your answer.
Response: 7.15

Request: Name the recorded SY5Y (human) NAD Cell Dox AC0.3 of the item `Cc1nc(C(=O)N[C@H](C)c2cccc(F)n2)nc(NCCc2cn[nH]c2)c1Cl` in your answer.
Response: 0.02

Request: Name the recorded SY5Y (human) NAD Cell Dox AC0.3 of the item `Cc1nc(C(=O)N[C@H](C)c2ccccc2)nc(NCCc2cn[nH]c2)c1C` in your answer.
Response: 0.24

Request: Name the recorded SY5Y (human) NAD Cell Dox AC0.3 of the item Cc1nc(C(=O)N2CCNCC2c2cccc(F)c2)nc(NCCc2cn[nH]c2)c1C (centres unmarked) in your answer.
Response: 2.49

---

Target: UniProtKB P43490
Experiment: Human recombinant enzyme assay (NMN fluorescence biochemical assay)
Details: concentration that gives half-maximal activation; 6 nM human NAMPT, 60 min
pEC50: −log10 of the molar value.
Criterion: pEC50 meeting or surpassing 5. Met: TRUE. Not met: FALSE.

Answered cases to consult:
[[record]]
compound = "Cc1nc(C(=O)NCCc2ccncc2F)nc(NCCc2cn[nH]c2)c1C [Compound 113]"
tested_on = "UniProtKB P43490"
category = "FALSE"

[[record]]
compound = "Cc1nc(C(=O)NCc2cccc(F)c2)nc(NCCc2cn[nH]c2)c1C [Compound 32]"
tested_on = "UniProtKB P43490"
category = "TRUE"

[[record]]
compound = "Cc1nc(C(=O)NCc2ccccc2)nc(NCCc2cn[nH]c2)c1C [Compound 31]"
tested_on = "UniProtKB P43490"
category = "TRUE"

[[record]]
compound = "Cc1nc(C(=O)NC(C)(C)Cc2cccc(F)c2)nc(NCCc2cn[nH]c2)c1C [Compound 41]"
tested_on = "UniProtKB P43490"
category = "TRUE"

[[record]]
compound = "Cc1nc(C(=O)N2CCC(c3ccccc3F)C2)nc(NCCc2cn[nH]c2)c1C (stereo not drawn) [Compound 66]"
tested_on = "UniProtKB P43490"
category = "FALSE"

[[record]]
compound = "Cc1nc(C(=O)N2CCC(C(F)(F)F)CC2)nc(NCCc2cn[nH]c2)c1C [Compound 119]"
tested_on = "UniProtKB P43490"
category = "FALSE"


Request: Entry CCCN(CCc1cn[nH]c1)c1nc(C(N)=O)nc(C)c1C [Compound 106] : is its pEC50 no less than 5?
Response: FALSE

---

Molecular target: human NAMPT (Homo sapiens (Human))
Sequence (P43490 whole entry): as above
Assay: Human recombinant enzyme assay (NMN fluorescence biochemical assay)
Conditions: concentration of compound that generates 40% higher activity over basal; 6 nM human NAMPT, 60 min
Criterion: AC1.4 Human meeting or surpassing 0.5 µM. Met: Satisfied. Not met: Not satisfied.

[[record]]
molecule = "Cc1nc(C(=O)NC(C)c2ncco2)nc(NCCc2cn[nH]c2)c1C (centres unmarked)"
category = "Satisfied"

[[record]]
molecule = "Cc1nc(C(=O)N[C@@H](C)c2ccccc2Cl)nc(NCCc2cn[nH]c2)c1C"
category = "Satisfied"

[[record]]
molecule = "Cc1nc(C(=O)N2CCC[C@@H]2c2ccccn2)nc(NCCc2cn[nH]c2)c1C"
category = "Satisfied"

[[record]]
molecule = "Cc1nc(C(=O)NCC2CN(C(=O)c3ccccc3)C2)nc(NCCc2cn[nH]c2)c1C"
category = "Not satisfied"

[[record]]
molecule = "Cc1nc(C(=O)N2CCOC[C@H]2Cc2ccccc2)nc(NCCc2cn[nH]c2)c1C"
category = "Not satisfied"


Request: Entry `Cc1nc(C(=O)N2CC(O)(Cc3ccccc3)C2)nc(NCCc2cn[nH]c2)c1C` : is its AC1.4 Human no less than 0.5 µM?
Response: Not satisfied

Request: Entry `Cc1nc(C(=O)N[C@H](C)c2ccncc2)nc(NCCc2cn[nH]c2)c1C` : is its AC1.4 Human no less than 0.5 µM?
Response: Satisfied

Request: Entry `CCCN(CCc1cn[nH]c1)c1nc(C(N)=O)nc(C)c1C` : is its AC1.4 Human no less than 0.5 µM?
Response: Satisfied

Request: Entry `Cc1nc(C(=O)N2CCC(O)(c3ccccc3)CC2)nc(NCCc2cn[nH]c2)c1C` : is its AC1.4 Human no less than 0.5 µM?
Response: Satisfied

Request: Entry `Cc1nc(C(=O)N2CCOC[C@H]2c2ccccc2)nc(NCCc2cn[nH]c2)c1C` : is its AC1.4 Human no less than 0.5 µM?
Response: Not satisfied
